The entries below come with measured protein stability index values attached.
System: Saccharomyces cerevisiae
ASSAY EXPLANATION: protein stability index of tFT-peptide fusion (C-terminal peptide) (PSI (0-1 scale)); higher = more stable (slower turnover)
CONDITION LABEL: genetic background: wild type; temperature: 30 C
Just the number, please, no unit after it.

Here's what some known entries look like.
VDLLFLMVGTSV : 0.574
GRGTLLGLGLYA : 0.692
SEKIRDQQPTPA : 0.671
WLMVGVDWRFVG : 0.138
RAILTVVRGHLE : 0.668

Ask: Item under review: PPPLPRPFPPFP . Reported protein stability index?
Result: 0.697

Ask: Item under review: ALPFPASTSPLS . Reported protein stability index?
Result: 0.701

Ask: Item under review: KIRRKIRIYKRK . Reported protein stability index?
Result: 0.629

Ask: Item under review: LRSLVRSRPAPP . Reported protein stability index?
Result: 0.674

Ask: Item under review: KGRNYVGRIRNN . Reported protein stability index?
Result: 0.509

Ask: Item under review: LRHHARSYLPRL . Reported protein stability index?
Result: 0.805

Ask: Item under review: VRTFVFLVGYCE . Reported protein stability index?
Result: 0.458

----------
Test system: Saccharomyces cerevisiae
ASSAY EXPLANATION: protein stability index of tFT-peptide fusion (C-terminal peptide) (PSI (0-1 scale)); higher = more stable (slower turnover)
CONDITION LABEL: genetic background: wild type; temperature: 30 C
Label rule met when protein stability index is at or above 0.7; anything below gets rule not met.

// below: answered sequences
ILLHSFFSFYLL : rule not met
WLLGLCLFGFHR : rule not met
LRGGGGAGVFFG : rule not met
GPPPPPPLPQLW : rule met

Ask: Entry SFMYCDLLLFGS : is its protein stability index no less than 0.7?
Result: rule not met

Ask: Entry LVGGGDRPGLGR : is its protein stability index no less than 0.7?
Result: rule not met

Ask: Entry FPELLFLFSPSF : is its protein stability index no less than 0.7?
Result: rule met

Ask: Entry CLTGSVLVICGN : is its protein stability index no less than 0.7?
Result: rule not met

Ask: Entry PPPPPPPSSPPP : is its protein stability index no less than 0.7?
Result: rule met

Ask: Entry HLLLLDLTRPIL : is its protein stability index no less than 0.7?
Result: rule met

Ask: Entry FIGVLVFSWLLF : is its protein stability index no less than 0.7?
Result: rule not met

----------
The entries below come with measured protein stability index values attached.
Test system: Saccharomyces cerevisiae
ASSAY EXPLANATION: protein stability index of tFT-peptide fusion (C-terminal peptide) (PSI (0-1 scale)); higher = more stable (slower turnover)
CONDITION LABEL: genetic background: das1 deletion; temperature: 30 C
Just the number, please, no unit after it.

Ask: Item under review: AFKKAQAEKSKK [NOP12 C-terminal 12 aa] . Reported protein stability index?
Result: 0.699

Ask: Item under review: NISNGSSTQDMK [HPR1 C-terminal 12 aa] . Reported protein stability index?
Result: 0.703

Ask: Item under review: KYGIYLKEKTVA [LYS9 C-terminal 12 aa] . Reported protein stability index?
Result: 0.663

----------
System: Saccharomyces cerevisiae
ASSAY EXPLANATION: protein stability index of tFT-peptide fusion (C-terminal peptide) (PSI (0-1 scale)); higher = more stable (slower turnover)
CONDITION LABEL: genetic background: cdc34-1; temperature: 37 C
The entries below come with measured protein stability index values attached.
Just the number, please, no unit after it.

Here's what some known entries look like.
FVVVGVLFLCVG : 0.256
ILLHSFFSFYLL : 0.484
LYSLRRNWLRTP : 0.637

Ask: Item under review: VFMSVAPVSVLG . Reported protein stability index?
Result: 0.115

----------
The entries below come with measured protein stability index values attached.
System: Saccharomyces cerevisiae
ASSAY EXPLANATION: protein stability index of tFT-peptide fusion (C-terminal peptide) (PSI (0-1 scale)); higher = more stable (slower turnover)
CONDITION LABEL: genetic background: wild type; temperature: 30 C
Just the number, please, no unit after it.

Ask: Item under review: FGSPVGSAGSCF . Reported protein stability index?
Result: 0.647

Ask: Item under review: HMRPSTRLMPAG . Reported protein stability index?
Result: 0.593

Ask: Item under review: AAPEGLRRDRGA . Reported protein stability index?
Result: 0.571

Ask: Item under review: LFRGVWYYFLVR . Reported protein stability index?
Result: 0.507

Ask: Item under review: GGGGGREPGCGP . Reported protein stability index?
Result: 0.707

Ask: Item under review: PPAPSSLPSPPS . Reported protein stability index?
Result: 0.715

Ask: Item under review: PRSFFYIQFVFA . Reported protein stability index?
Result: 0.324

Ask: Item under review: KKLELLNRDRKV . Reported protein stability index?
Result: 0.641

Ask: Item under review: PRRVGRLGAPMG . Reported protein stability index?
Result: 0.719

Ask: Item under review: GVAGGLLLRGGR . Reported protein stability index?
Result: 0.673

Ask: Item under review: EQSLRHKCRPSV . Reported protein stability index?
Result: 0.596

Ask: Item under review: SVIYQMMGRIVR . Reported protein stability index?
Result: 0.723

Ask: Item under review: PPPLPPPPLPGL . Reported protein stability index?
Result: 0.676

Ask: Item under review: ITLQGDWCRLVD . Reported protein stability index?
Result: 0.715

----------
Test system: Saccharomyces cerevisiae
ASSAY EXPLANATION: protein stability index of tFT-peptide fusion (C-terminal peptide) (PSI (0-1 scale)); higher = more stable (slower turnover)
CONDITION LABEL: genetic background: wild type; temperature: 30 C
The entries below come with measured protein stability index values attached.
Just the number, please, no unit after it.

FTMSLAHCLMFS [YJL169W C-terminal 12 aa] : 0.668
YNINHRKSVNSV [TDA9 C-terminal 12 aa] : 0.663
GHSHKHKGHQKK [KRI1 C-terminal 12 aa] : 0.667
YSELCIIVGTYY [YDR003W-A C-terminal 12 aa] : 0.439
DRWLNRKALNKG [BUD21 C-terminal 12 aa] : 0.676

Ask: Return protein stability index measured with Saccharomyces cerevisiae given this sequence: LLPMAFGPSHLN [CDD1 C-terminal 12 aa]
Result: 0.76

Ask: Return protein stability index measured with Saccharomyces cerevisiae given this sequence: DDRPIYKRFFSS [HXT9 C-terminal 12 aa]
Result: 0.654

Ask: Return protein stability index measured with Saccharomyces cerevisiae given this sequence: DGPGLNNFGITL [BMT2 C-terminal 12 aa]
Result: 0.699

Ask: Return protein stability index measured with Saccharomyces cerevisiae given this sequence: IEELTDTLNSTI [PEX29 C-terminal 12 aa]
Result: 0.698

Ask: Return protein stability index measured with Saccharomyces cerevisiae given this sequence: LIDSVKKKVNND [SAC3 C-terminal 12 aa]
Result: 0.697

Ask: Return protein stability index measured with Saccharomyces cerevisiae given this sequence: KYGIYLKEKTVA [LYS9 C-terminal 12 aa]
Result: 0.489

Ask: Return protein stability index measured with Saccharomyces cerevisiae given this sequence: KKRDPITGEVFE [ERG5 C-terminal 12 aa]
Result: 0.667

----------
Test system: Saccharomyces cerevisiae
ASSAY EXPLANATION: protein stability index of tFT-peptide fusion (C-terminal peptide) (PSI (0-1 scale)); higher = more stable (slower turnover)
CONDITION LABEL: genetic background: wild type; temperature: 30 C
The entries below come with measured protein stability index values attached.
Just the number, please, no unit after it.

RHPPVPCIAQIR : 0.658
PHHLLTAHPPPA : 0.668
NFYKKLSNKMGQ : 0.662
IKRIYQKKIERK : 0.762
RVGWCGGGRGGR : 0.658
GIFVRIVCIDVA : 0.265
LTRRSPSPRTLT : 0.644
PFPSLCFPPLNG : 0.727
RGCAPDRIPAPV : 0.645
PQTYHRPPPPLH : 0.702

Ask: Return protein stability index measured with Saccharomyces cerevisiae given this sequence: PKTPRFWLLFPA
Result: 0.699

Ask: Return protein stability index measured with Saccharomyces cerevisiae given this sequence: PSTDARRQRLRR
Result: 0.721

Ask: Return protein stability index measured with Saccharomyces cerevisiae given this sequence: CSSLPSRPLLPH
Result: 0.721

Ask: Return protein stability index measured with Saccharomyces cerevisiae given this sequence: AHDRLPSTRLVC
Result: 0.581

Ask: Return protein stability index measured with Saccharomyces cerevisiae given this sequence: LGAIGFVVVGGL
Result: 0.622

Ask: Return protein stability index measured with Saccharomyces cerevisiae given this sequence: AGGGAVWQGQQD
Result: 0.725

Ask: Return protein stability index measured with Saccharomyces cerevisiae given this sequence: PLTACPSAPTLP
Result: 0.667

Ask: Return protein stability index measured with Saccharomyces cerevisiae given this sequence: IPPCRSFSYIAT
Result: 0.68

Ask: Return protein stability index measured with Saccharomyces cerevisiae given this sequence: FGVLGCAWVWVG
Result: 0.157
